# TARGET: opioid receptor
# ASSAY_CONTEXT: read-out: Ki opioid site; dose-response assessment
VALUE_KIND: Ki (µM)
Numeric only. Scale: µM

Assign Ki to the following record: O=C(N[C@@H]1C2CCN(CC2)[C@H]1Cc1cccnc1)c1cc2ccccc2o1 [Compound A] 13

* * *

# TARGET: human α4β2 receptors (Homo sapiens, UniProt P17787+P43681)
# METHOD: [3H]-(S)-nicotine competition binding in SH-EP1 cellular membranes
# ASSAY_CONTEXT: SH-EP1 cells
VALUE_KIND: pKi
Remember the convention: pKi equals -log10 of concentration in molar.

Assign pKi to the following record: O=C(N[C@@H]1C2CCN(CC2)[C@H]1Cc1cccnc1)c1cc2ccccc2o1 [Compound A] 5.55
